As shown below, each of these variants has a reported enrichment value.
B1: NLV2 TCR alpha chain (CDR3α only) (parent)
chain: AGPMKTSYDKVI
partner: NLVGMVATV

variants of: B1; assay: T-Switch: Jurkat TCRβ−/− cells expressing a CDR3 saturation-mutagenesis library, stained with two peptide-HLA-A*02:01 tetramers (original and novel peptide) plus anti-CD3, FACS-sorted into four gates, gDNA sequenced; settings: with HLA-A*02:01 with peptide … (NLV 2-2, the original bait), tetramers 1 µg/mL, 30 min on ice, DP and SW gates expanded about 10 days between rounds ('two to three rounds of selection' in the Methods), gate SP: higher = more of the variant in the gate that binds the original peptide and not the novel one = retained original binding. Fold enrichment of the CDR3 variant in one FACS gate of a two-tetra, unresolved parent, parent is a CDR3 fragment, scale: fold enrichment, numbering: sequential-on-construct, sequence …
The reply should be a number, written without any unit.

INPUT: Reported enrichment for […] (CDR3 as printed); I12H derived by comparing it with the table's wild-type CDR3 AGPMKTSYDKVI : what is it?
OUTPUT: 0

INPUT: I'd like to know its enrichment. The variant in question is […] (CDR3 as printed); I12W derived by comparing it with the table's wild-type CDR3 AGPMKTSYDKVI
OUTPUT: 0

INPUT: Which enrichment is listed for […] (CDR3 as printed); I12V derived by comparing it with the table's wild-type CDR3 AGPMKTSYDKVI ?
OUTPUT: 11.6

INPUT: Please give the measured enrichment for this variant: […] (CDR3 as printed); S7I derived by comparing it with the table's wild-type CDR3 AGPMKTSYDKVI
OUTPUT: 0

INPUT: // lookup enrichment for […] (CDR3 as printed); G2N derived by comparing it with the table's wild-type CDR3 AGPMKTSYDKVI
OUTPUT: 0

INPUT: Entry […] (CDR3 as printed); M4T derived by comparing it with the table's wild-type CDR3 AGPMKTSYDKVI has what enrichment?
OUTPUT: 12.4

INPUT: Recorded enrichment for […] (CDR3 as printed); V11H derived by comparing it with the table's wild-type CDR3 AGPMKTSYDKVI , please?
OUTPUT: 0

INPUT: I would be grateful if you could share the reported enrichment for […] (CDR3 as printed); K10C derived by comparing it with the table's wild-type CDR3 AGPMKTSYDKVI .
OUTPUT: 0.162

// next entry
INPUT: Quick one: enrichment of […] (CDR3 as printed); V11L derived by comparing it with the table's wild-type CDR3 AGPMKTSYDKVI ?
OUTPUT: 0
